Listed compounds paired with reported melting point
Number only, in °C; omit the unit.

Measured melting point, COc1nc2ccc(N3CCOCC3)cc2cc1C(c1ccccc1)C(O)(CCN(C)C)c1cccc2ccccc12 (single isomer, unassigned) [Compound 30] : 210

Measured melting point, COc1nc2ccc(N3CCOCC3)cc2cc1C(c1ccccc1)C(O)(CCN(C)C)c1ccccc1 (single isomer, unassigned) [Compound 36] : 190

---

system: Streptococcus pneumoniae (ATCC6305); assay: In-vitro anti-bacterial microtitre plate assay, IC90, S. pneumoniae; assay type: cell-based; settings: 90% inhibitory concentration for bacterial growth, 24 hours, resazurin fluorescence
Experimental endpoint: IC90 values SPN 1 6305 (µg/mL)
Number only, in µg/mL; omit the unit.

Reference set (2 entries):
{"columns": ["Compound", "Measurement target", "Value units", "IC90 values SPN 1 6305"],
 "data": [
  ["COc1nc2ccc(/C=N/O)cc2cc1C(c1ccccc1)C(O)(CCCCN(C)C)c1ccc2ccccc2c1 (single isomer, unassigned) [Compound 32]", "Streptococcus pneumoniae (ATCC6305)", "µg/mL", 10.9],
  ["COc1nc2ccc(N)cc2cc1C(c1ccccc1)C(O)(CCN(C)C)c1cccc2ccccc12 (single isomer, unassigned) [Compound 15]", "Streptococcus pneumoniae (ATCC6305)", "µg/mL", 7.8]
]}

Next compound, please.
Measured IC90 values SPN 1 6305, COc1nc2ccc(N3CCOCC3)cc2cc1C(c1ccccc1)C(O)(CCN(C)C)c1ccccc1 (single isomer, unassigned) [Compound 5] : 9.1
